Data origin, for the record: paper PMC4996523

target: Mouse Nav1.9 (Mus musculus); test: PatchXpress whole-cell voltage clamp, inhibition of mouse Nav1.9 (+mouse β1/β2) in HEK-293 cells
Sequence (Q9R053 whole entry): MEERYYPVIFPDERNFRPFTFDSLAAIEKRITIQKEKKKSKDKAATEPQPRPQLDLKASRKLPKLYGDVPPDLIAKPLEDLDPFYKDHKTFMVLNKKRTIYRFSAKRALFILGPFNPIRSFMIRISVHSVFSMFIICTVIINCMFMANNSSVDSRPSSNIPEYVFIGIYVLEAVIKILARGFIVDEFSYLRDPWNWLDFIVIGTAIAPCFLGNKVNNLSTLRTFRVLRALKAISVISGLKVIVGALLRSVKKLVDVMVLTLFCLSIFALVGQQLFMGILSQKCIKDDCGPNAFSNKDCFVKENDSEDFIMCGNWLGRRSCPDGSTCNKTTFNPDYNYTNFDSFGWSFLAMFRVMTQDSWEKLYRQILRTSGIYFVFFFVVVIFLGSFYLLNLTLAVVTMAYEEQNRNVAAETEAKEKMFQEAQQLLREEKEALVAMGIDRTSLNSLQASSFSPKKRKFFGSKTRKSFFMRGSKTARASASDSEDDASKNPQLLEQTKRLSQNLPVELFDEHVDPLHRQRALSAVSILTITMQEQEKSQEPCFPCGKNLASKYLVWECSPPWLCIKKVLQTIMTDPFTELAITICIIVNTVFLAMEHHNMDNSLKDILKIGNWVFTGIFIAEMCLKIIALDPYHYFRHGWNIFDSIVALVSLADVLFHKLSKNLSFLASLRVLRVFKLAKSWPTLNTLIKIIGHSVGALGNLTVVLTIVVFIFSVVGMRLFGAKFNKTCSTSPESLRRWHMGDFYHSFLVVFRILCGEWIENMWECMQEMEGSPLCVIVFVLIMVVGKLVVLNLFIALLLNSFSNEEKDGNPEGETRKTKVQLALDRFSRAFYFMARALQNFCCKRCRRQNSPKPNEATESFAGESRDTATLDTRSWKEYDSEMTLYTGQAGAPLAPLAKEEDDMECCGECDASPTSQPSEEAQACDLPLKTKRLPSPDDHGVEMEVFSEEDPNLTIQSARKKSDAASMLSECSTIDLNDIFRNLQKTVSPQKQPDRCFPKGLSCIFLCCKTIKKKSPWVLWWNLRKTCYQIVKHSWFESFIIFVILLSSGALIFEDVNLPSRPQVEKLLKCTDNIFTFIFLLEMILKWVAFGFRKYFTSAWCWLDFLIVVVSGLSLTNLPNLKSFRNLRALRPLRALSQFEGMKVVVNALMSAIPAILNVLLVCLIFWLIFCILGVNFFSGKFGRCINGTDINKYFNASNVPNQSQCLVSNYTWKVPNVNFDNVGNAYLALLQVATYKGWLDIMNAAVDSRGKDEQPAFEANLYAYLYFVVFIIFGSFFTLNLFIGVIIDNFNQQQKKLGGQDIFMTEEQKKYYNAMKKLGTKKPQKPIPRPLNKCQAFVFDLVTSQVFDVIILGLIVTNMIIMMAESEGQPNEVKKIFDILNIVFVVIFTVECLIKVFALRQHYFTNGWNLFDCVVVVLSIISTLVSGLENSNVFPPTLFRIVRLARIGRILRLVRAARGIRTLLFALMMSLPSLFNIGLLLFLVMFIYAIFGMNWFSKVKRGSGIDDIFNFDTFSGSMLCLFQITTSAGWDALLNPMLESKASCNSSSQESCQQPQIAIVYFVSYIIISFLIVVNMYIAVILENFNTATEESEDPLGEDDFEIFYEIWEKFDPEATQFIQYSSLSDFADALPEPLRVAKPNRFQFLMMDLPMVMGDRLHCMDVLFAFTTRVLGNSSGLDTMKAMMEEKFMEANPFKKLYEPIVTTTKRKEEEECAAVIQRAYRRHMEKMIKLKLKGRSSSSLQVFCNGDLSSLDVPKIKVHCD
Sequence (P97952 19-218 partner): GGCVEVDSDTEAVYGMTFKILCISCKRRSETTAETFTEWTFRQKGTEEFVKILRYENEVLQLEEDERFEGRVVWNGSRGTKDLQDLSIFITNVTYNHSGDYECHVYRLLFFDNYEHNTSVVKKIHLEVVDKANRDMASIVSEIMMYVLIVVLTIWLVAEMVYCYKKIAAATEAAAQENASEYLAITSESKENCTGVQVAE
METRIC NAME: IC50 (µM)

| SUBSTANCE SMILES | RESULT VALUE |
| --- | --- |
| CCCCNc1ccc(C(=O)OCCN(C)C)cc1 | 12 |

###

biological target: Human Nav1.9 F1592A/Y1599A (Homo sapiens, UniProt Q9UI33, F1592A/Y1599A); construct: expressed in transfected cells; host or cells: HEK-293-β1/β2; test: PatchXpress whole-cell voltage clamp, inhibition of the human Nav1.9 F1592A/Y1599A local anesthetic site mutant in HEK-293 cells; assay type: cell-based; details: in figure; read-out: IC50 for inhibition of human Nav1.9 F1592A/Y1599A (LAM)
Sequence (Q9UI33 whole entry F1592A/Y1599A): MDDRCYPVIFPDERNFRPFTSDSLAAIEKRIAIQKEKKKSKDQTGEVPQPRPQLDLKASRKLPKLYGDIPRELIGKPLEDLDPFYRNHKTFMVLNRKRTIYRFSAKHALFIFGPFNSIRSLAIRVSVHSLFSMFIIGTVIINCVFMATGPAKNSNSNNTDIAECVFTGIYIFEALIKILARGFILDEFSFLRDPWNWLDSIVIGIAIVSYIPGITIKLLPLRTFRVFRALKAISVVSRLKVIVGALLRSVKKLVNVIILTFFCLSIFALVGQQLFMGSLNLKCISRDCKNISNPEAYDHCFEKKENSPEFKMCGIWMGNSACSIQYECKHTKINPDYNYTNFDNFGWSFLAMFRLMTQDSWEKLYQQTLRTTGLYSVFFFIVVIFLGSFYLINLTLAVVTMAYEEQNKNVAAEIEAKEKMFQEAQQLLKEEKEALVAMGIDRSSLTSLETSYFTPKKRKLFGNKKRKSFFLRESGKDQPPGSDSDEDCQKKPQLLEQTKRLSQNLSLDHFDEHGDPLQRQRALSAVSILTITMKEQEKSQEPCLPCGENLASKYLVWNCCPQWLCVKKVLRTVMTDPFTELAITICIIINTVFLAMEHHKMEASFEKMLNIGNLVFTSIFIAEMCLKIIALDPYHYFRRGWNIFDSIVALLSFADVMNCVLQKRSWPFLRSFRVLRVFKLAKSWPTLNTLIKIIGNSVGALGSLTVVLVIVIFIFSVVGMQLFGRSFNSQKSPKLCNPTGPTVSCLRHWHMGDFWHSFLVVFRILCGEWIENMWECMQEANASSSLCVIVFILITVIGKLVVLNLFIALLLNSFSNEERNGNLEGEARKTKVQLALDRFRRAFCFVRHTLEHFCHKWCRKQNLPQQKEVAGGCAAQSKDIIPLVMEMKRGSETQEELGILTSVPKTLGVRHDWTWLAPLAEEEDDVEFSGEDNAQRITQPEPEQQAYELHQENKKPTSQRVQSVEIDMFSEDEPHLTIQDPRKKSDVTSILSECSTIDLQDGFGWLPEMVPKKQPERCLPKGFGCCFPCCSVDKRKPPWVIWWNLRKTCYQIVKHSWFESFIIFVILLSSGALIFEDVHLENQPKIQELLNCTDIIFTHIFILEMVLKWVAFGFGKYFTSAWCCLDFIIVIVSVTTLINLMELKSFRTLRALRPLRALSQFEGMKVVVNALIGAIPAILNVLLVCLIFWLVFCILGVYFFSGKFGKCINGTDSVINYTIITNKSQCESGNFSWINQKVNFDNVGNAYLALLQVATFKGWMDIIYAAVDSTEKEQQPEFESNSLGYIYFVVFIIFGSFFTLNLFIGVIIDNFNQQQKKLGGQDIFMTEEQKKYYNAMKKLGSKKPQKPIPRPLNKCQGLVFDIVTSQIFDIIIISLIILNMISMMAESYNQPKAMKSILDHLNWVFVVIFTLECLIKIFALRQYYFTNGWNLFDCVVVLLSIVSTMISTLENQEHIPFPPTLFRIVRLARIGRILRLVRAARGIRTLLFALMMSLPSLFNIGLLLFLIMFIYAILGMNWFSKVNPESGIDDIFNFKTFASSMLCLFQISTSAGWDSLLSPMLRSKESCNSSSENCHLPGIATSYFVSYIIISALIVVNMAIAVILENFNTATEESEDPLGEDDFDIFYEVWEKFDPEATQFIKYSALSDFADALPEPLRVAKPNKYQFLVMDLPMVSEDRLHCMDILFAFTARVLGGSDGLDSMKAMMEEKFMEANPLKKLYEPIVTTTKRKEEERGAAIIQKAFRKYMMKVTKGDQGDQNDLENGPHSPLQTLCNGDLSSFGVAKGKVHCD
Sequence (Q07699 19-218 partner): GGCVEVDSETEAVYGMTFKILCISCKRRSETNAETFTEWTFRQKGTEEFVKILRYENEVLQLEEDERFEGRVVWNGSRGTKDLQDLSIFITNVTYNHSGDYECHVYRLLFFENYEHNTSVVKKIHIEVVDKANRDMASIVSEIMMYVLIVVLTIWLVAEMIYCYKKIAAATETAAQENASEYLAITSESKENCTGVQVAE
pIC50: −log10 of the molar value.
METRIC NAME: pIC50

| SUBSTANCE SMILES | TARGET ENTITY | RESULT VALUE |
| --- | --- | --- |
| CCOC(=O)c1ccc(N)cc1 | Human Nav1.9 F1592A/Y1599A (Homo sapiens, UniProt Q9UI33, F1592A/Y1599A) | 2.74 |

###

biological target: Nav1.7 N945K (Homo sapiens, UniProt Q15858, N956K); construct: expressed in transfected cells; host or cells: HEK-293-β1/β2; test: PatchXpress whole-cell voltage clamp, inhibition of the human Nav1.7 N945K mutant in HEK-293 cells; type: cell-based; settings: in figure
pIC50: −log10 of the molar value.

| MOLECULE | pIC50 |
| --- | --- |
| CCOC(=O)c1ccc(N)cc1 [Benzocaine] | 3.74 |

###

biological target: Human Nav1.9 (Homo sapiens); construct: expressed in transfected cells; host or cells: HEK-293 stably expressing human β1/β2; assay: PatchXpress whole-cell voltage clamp, inhibition of human Nav1.9 (+β1/β2) currents in HEK-293 cells; format: cell-based; conditions: holding potential -120 mV (~25% inactivation), 40 ms step to -40 mV every 20 s; HEK-293 + β1/β2, 500 μM GTP-γ-S in pipette; read-out: IC50 for inhibition of human Nav1.9
Sequence (Q9UI33 whole entry): as the sequence (Q9UI33 whole entry F1592A/Y1599A) above, with A1592F, A1599Y counted along it
Sequence (Q07699 19-218 partner): as the sequence (Q07699 19-218 partner) above

| COMPOUND | READOUT UNITS | IC50 |
| --- | --- | --- |
| CCCCN1CCCCC1C(=O)Nc1c(C)cccc1C (centres unmarked) | µM | 186 |
| Cc1cccc(C)c1OCC(C)N (centres unmarked) | µM | 270 |
| CCOC(=O)c1ccc(N)cc1 | µM | 351 |
| Nc1nnc(-c2cccc(Cl)c2Cl)c(N)n1 | µM | 199 |
| CN(C)CCC=C1c2ccccc2CCc2ccccc21 | µM | 29 |
| CCN(CC)CC(=O)Nc1c(C)cccc1C | µM | 356 |
| COCCOC(=O)C1=C(C)NC(C)=C(C(=O)OC(C)C)C1c1cccc([N+](=O)[O-])c1 (centres unmarked) | µM | 33 |
| O=C(NCC1CCCCN1)c1cc(OCC(F)(F)F)ccc1OCC(F)(F)F (centres unmarked) [Flecainide] | µM | 244 |

###

Measured IC50 values are reported for all entries that follow.
target: Human Nav1.9 F1592A/Y1599A (Homo sapiens, UniProt Q9UI33, F1592A/Y1599A); construct: expressed in transfected cells; host or cells: HEK-293-β1/β2; assay: PatchXpress whole-cell voltage clamp, inhibition of the human Nav1.9 F1592A/Y1599A local anesthetic site mutant in HEK-293 cells; assay type: cell-based; conditions: same protocol as Nav1.9 WT; read-out: IC50 for inhibition of human Nav1.9 F1592A/Y1599A (LAM)

| COMPOUND | TARGET ENTITY | READOUT UNITS | IC50 |
| --- | --- | --- | --- |
| CCCCNc1ccc(C(=O)OCCN(C)C)cc1 [Tetracaine] | Human Nav1.9 F1592A/Y1599A (Homo sapiens, UniProt Q9UI33, F1592A/Y1599A) | µM | 177 |
| CCN(CC)CC(=O)Nc1c(C)cccc1C [Lidocaine] | Human Nav1.9 F1592A/Y1599A (Homo sapiens, UniProt Q9UI33, F1592A/Y1599A) | µM | 5550 |
| CCOC(=O)c1ccc(N)cc1 [Benzocaine] | Human Nav1.9 F1592A/Y1599A (Homo sapiens, UniProt Q9UI33, F1592A/Y1599A) | µM | 1760 |
| Cc1cccc(C)c1OCC(C)N (centres unmarked) [Mexiletine] | Human Nav1.9 F1592A/Y1599A (Homo sapiens, UniProt Q9UI33, F1592A/Y1599A) | µM | 837 |
| CN(C)CCC=C1c2ccccc2CCc2ccccc21 [Amitriptyline] | Human Nav1.9 F1592A/Y1599A (Homo sapiens, UniProt Q9UI33, F1592A/Y1599A) | µM | 105 |
